Data provenance: ChEMBL document CHEMBL3507680

# test.details: Human HepG2 cell viability assay in 384 well format
# Assay type: toxicity, cell-based
# Design: dose 125 nL, time 70.5 hour; concentration not given beside the values
# experimental.setup: HepG2 cells, read-out: Inhibition
// values below are reported cytotoxicity at 70.5 h
API: value field is a number in %; no unit string.

Some solved cases for reference:
compound | cytotoxicity at 70.5 h / %
CC(C)N1CCC(NCc2cccnc2N(C)Cc2ccccc2)CC1 | -5.38
Cc1nc(NC(=O)C(C)N2CCN(c3ncccn3)CC2)sc1C (stereo unspecified) | -8.18
CCN(C1CCN(c2cccc(F)c2C(C)=O)CC1)S(C)(=O)=O | -5.28
CC(C)Cn1ncc2cc(C(=O)N(C)Cc3cccc(O)c3)cnc21 | 11.7
CCn1c(CC2CCN(C(=O)c3cc(C(C)C)nn3C)CC2)n[nH]c1=O | 2.37
O=C(C[C@@H]1COC[C@H]2CN(Cc3ccc(F)cc3)C[C@@H]12)N1CCCC1 | 2.93
Cc1cc(C)n(CC(C)CNC(=O)NCc2ccco2)n1 (stereo unspecified) | -10.4
CC1CN(CC(=O)Nc2ccncc2)CCN1Cc1nccn1C (stereo unspecified) | -0.423
Cc1ccc2c(n1)N(C)CCN(C(=O)NC(C)C)C2 | -6.1
O=C(NCc1ccccc1CN1CCC(O)CC1)Nc1ccncc1 | 9.61

Attention now turns to another entry.
Item under review: Cc1ccc2c(c1)c(CNC(=O)C1CCN(CC(N)=O)CC1)nn2C . Reported cytotoxicity at 70.5 h?
-2.32
